% inhibition of SMAD7 mRNA expression reference
Tested on: human SMAD7 mRNA
METHOD_DESCRIPTION: Dose-dependent inhibition of human SMAD7 mRNA expression in Hep3B cells (Example 3, Study 1 and 2)
Type: cell-based
CONDITION_CONTEXT: 740 nM, electroporation, approximately 16 hours, Study 2, relative to untreated control cells
Procedure: The antisense oligonucleotides were tested in a series of experiments that had similar culture conditions as described below. Cells were plated at a density of 20,000 cells per well and transfected using electroporation with 0.31 μM, 1.25 μM, 5.00 μM, or 20.00 μM concentrations of antisense oligonucleotide, as specified in the Tables below. […] After a treatment period of approximately 16 hours, RNA was isolated from the cells and SMAD7 mRNA levels were measured by quantitative real-time PCR. […]
Strand notation (5' to 3'): a small letter for the sugar, then the base; units joined by * are phosphorothioate-linked, units joined directly phosphodiester-linked; [ ] holds rarer units or linkages, { } end groups; capitals alone tell only the bases. k = constrained ethyl (cEt); [5mC] = 5-methylcytosine; d = 2'-deoxy (DNA)
Respond with the bare value in %.

Worked cases, % inhibition of SMAD7 mRNA expression given:
- 829734 (antisense kT*k[5mC]*k[5mC]*dG*d[5mC]*dA*d[5mC]*dA*d[5mC]*d[5mC]*dA*dT*dG*kA*kA*kG) [compound 829734]: 20
- 799564 (k[5mC]*kA*kG*dA*dT*dA*dA*d[5mC]*dA*dG*dA*dG*dT*kA*kT*kA; antisense) [compound 799564]: 13

Now let's try a different one.
Which % inhibition of SMAD7 mRNA expression reading was recorded for the substance 801051 (antisense kG*kT*kG*dT*dT*d[5mC]*dA*dA*d[5mC]*dA*dA*dT*dG*k[5mC]*kT*kT) [compound 801051] ? 52
